Target: VIPR2 (Homo sapiens, UniProt P41587)
Assay: % Activity: inhibition of VIP-induced cAMP elevation and β-arrestin recruitment (Table 2)
Type: cell-based
Set-up: expressed in transfected cells; host or cells: HEK293 cells transfected with VIPR2 in pCDNA3.1 (as described)
measurement name: % Activity (%)

>>> observed_result("O=C(NCc1ccccc1)[C@@H](Cc1ccccc1)C[C@H](O)CNS(=O)(=O)c1ccc([N+](=O)[O-])cc1")
6.05
>>> observed_result("COc1ccc(S(=O)(=O)NC[C@@H](O)C[C@@H](Cc2ccccc2)C(=O)N[C@H]2c3ccccc3C[C@H]2O)cc1OC")
30.1

I: O=C(NC1CCCc2ccccc21)[C@H](Cc1ccccc1)C[C@H](O)CNS(=O)(=O)c1ccc([N+](=O)[O-])cc1 (stereo partly shown) [Compound B13A]
II: CNC(=O)c1ccc(S(=O)(=O)NC[C@@H](O)C[C@@H](Cc2ccccc2)C(=O)N[C@H]2c3ccccc3C[C@H]2O)cc1
III: CC1CCC(NC(=O)[C@H](Cc2ccccc2)C[C@H](O)CNS(=O)(=O)c2ccc([N+](=O)[O-])cc2)CC1 (stereo partly shown)
IV: NC(=O)[C@@H](Cc1ccccc1)C[C@H](O)CNS(=O)(=O)c1ccc([N+](=O)[O-])cc1 [Compound B12B]
V: O=C(N[C@H]1c2ccccc2C[C@H]1O)[C@H](Cc1ccccc1)C[C@H](O)CNS(=O)(=O)c1ccc(C(F)(F)F)cc1
[in] Rank ascending by % Activity. Output the labels ranked as instructed.
[out] III, IV, I, II, V
(III: −1.2%, IV: 8.35%, I: 13.85%, II: 34.25%, V: 95.7%)

----------
Target: VIPR2 (Homo sapiens, UniProt P41587)
Sequence (P41587 24-438): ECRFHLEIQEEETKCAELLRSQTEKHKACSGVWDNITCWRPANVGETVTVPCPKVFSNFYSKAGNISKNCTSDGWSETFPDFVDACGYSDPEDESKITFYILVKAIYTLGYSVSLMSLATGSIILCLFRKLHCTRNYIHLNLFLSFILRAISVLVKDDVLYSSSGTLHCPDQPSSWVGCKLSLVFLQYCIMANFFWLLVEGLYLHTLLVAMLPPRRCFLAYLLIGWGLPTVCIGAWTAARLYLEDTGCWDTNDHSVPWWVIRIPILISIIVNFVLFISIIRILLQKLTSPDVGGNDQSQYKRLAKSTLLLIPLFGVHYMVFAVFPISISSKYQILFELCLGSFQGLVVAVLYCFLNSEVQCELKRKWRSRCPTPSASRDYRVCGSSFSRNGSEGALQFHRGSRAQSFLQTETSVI
Assay: Inhibition of VIP-induced cAMP elevation (% Activity cAMP)
Format: cell-based
Parameters: expressed in transfected cells; host or cells: HEK293 cells transfected with VIPR2 in pCDNA3.1 (as described)
Conditions: 5 μM, Batch 3
measurement name: inhibition at 5 µM (%)

>>> observed_result("CCCNc1ccc(S(=O)(=O)NC[C@@H](O)C[C@@H](Cc2ccccc2)C(=O)N[C@H]2c3ccccc3C[C@H]2O)cc1 [Compound X084]")
24.5

A: CC(=O)Nc1ccc(S(=O)(=O)NC[C@H](C[C@@H](Cc2ccccc2)C(=O)N[C@H]2c3ccccc3C[C@H]2O)OC(C)=O)cc1 [Compound X089]
B: CCCCCNc1ccc(S(=O)(=O)NC[C@@H](O)C[C@@H](Cc2ccccc2)C(=O)N[C@H]2c3ccccc3C[C@H]2O)cc1 [Compound X087]
[in] Between A and B , which one shows the larger inhibition at 5 µM value? Lab note: record the label of whichever item you select.
[out] B

----------
Biological target: VIPR2 (Homo sapiens, UniProt P41587)
Assay: % Activity: inhibition of VIP-induced cAMP elevation and β-arrestin recruitment (Table 2)
Assay type: cell-based
Parameters: expressed in transfected cells; host or cells: HEK293 cells transfected with VIPR2 in pCDNA3.1 (as described)
Experimental: In a further non-limiting embodiment of the invention, the ability of a compound to inhibit VIPR2 and thereby […] a VIP-induced increase in cAMP may be measured using a Homogeneous Time-Resolved Fluorescence (“HTRF® assay; Cisbio Bioassays) as used in Chu et al., 2010, Molecular Pharmacol. 7795-101. […] After at least 1 h of room-temperature incubation, HTRF signal may be read, for example using Viewlux or EnVision (PerkinElmer Life and Analytical Sciences, Waltham, Mass.). […]
measurement name: % Activity (%)

Examples with answers:
>>> observed_result("CCCNc1ccc(S(=O)(=O)NC[C@@H](O)C[C@@H](Cc2ccccc2)C(=O)N[C@H]2c3ccccc3C[C@H]2O)cc1")
15.6
>>> observed_result("C=Cc1ccc(C(=O)NC[C@@H](O)C[C@@H](Cc2ccccc2)C(=O)N[C@H]2c3ccccc3C[C@H]2O)cc1")
12.8
>>> observed_result("O=C(NC[C@@H](O)C[C@@H](Cc1ccccc1)C(=O)N[C@H]1c2ccccc2C[C@H]1O)c1cccnc1")
5.05
>>> observed_result("O=C(NC[C@@H](O)C[C@@H](Cc1ccccc1)C(=O)N[C@H]1c2ccccc2C[C@H]1O)c1cccc([N+](=O)[O-])c1")
4.75

a: N#Cc1ccc(S(=O)(=O)NC[C@@H](O)C[C@@H](Cc2ccccc2)C(=O)N[C@H]2c3ccccc3C[C@H]2O)cc1
b: O=C(NC[C@@H](O)C[C@@H](Cc1ccccc1)C(=O)N[C@H]1c2ccccc2C[C@H]1O)c1cccc(CCl)c1
c: O=C(NN1CCCCC1)[C@H](Cc1ccccc1)C[C@H](O)CNS(=O)(=O)c1ccc([N+](=O)[O-])cc1
d: O=C(NC1Cc2ccccc2C1)[C@H](Cc1ccccc1)C[C@H](O)CNS(=O)(=O)c1ccc([N+](=O)[O-])cc1
e: CCN(CC)C(=O)[C@@H](Cc1ccccc1)C[C@H](O)CNS(=O)(=O)c1ccc([N+](=O)[O-])cc1 [Compound B15B]
[in] Rank ascending by % Activity. Output the labels ranked as instructed.
[out] e, b, c, d, a
(e: −6.6%, b: 2.4%, c: 5.45%, d: 12.9%, a: 91.75%)

----------
Target: VIPR2 (Homo sapiens)
Assay: Inhibition of VIP-induced cAMP elevation (% Activity cAMP)
Assay type: cell-based
Parameters: expressed in transfected cells; host or cells: HEK293 cells transfected with VIPR2 in pCDNA3.1 (as described)
Conditions: 0.5 μM, Batch 1
measurement name: inhibition at 0.5 µM (%)

>>> observed_result("CC(C)c1ccc(S(=O)(=O)NC[C@@H](O)C[C@@H](Cc2ccccc2)C(=O)N[C@H]2c3ccccc3C[C@H]2O)cc1 [Compound A10]")
36.5
>>> observed_result("O=C(NC[C@@H](O)C[C@@H](Cc1ccccc1)C(=O)N[C@H]1c2ccccc2C[C@H]1O)C(Cl)Cl [Compound A6]")
18.4
>>> observed_result("O=C(NC[C@@H](O)C[C@@H](Cc1ccccc1)C(=O)N[C@H]1c2ccccc2C[C@H]1O)c1ccccn1 [Compound A17]")
14.9

1: O=C(NC[C@@H](O)C[C@@H](Cc1ccccc1)C(=O)N[C@H]1c2ccccc2C[C@H]1O)c1cccc(Br)c1 [Q]
2: Cc1ccc(S(=O)(=O)NC[C@@H](O)C[C@@H](Cc2ccccc2)C(=O)N[C@H]2c3ccccc3C[C@H]2O)cc1 [I]
3: O=C(NC[C@@H](O)C[C@@H](Cc1ccccc1)C(=O)N[C@H]1c2ccccc2C[C@H]1O)c1cccc(CCl)c1 [O]
4: O=C(NC[C@@H](O)C[C@@H](Cc1ccccc1)C(=O)N[C@H]1c2ccccc2C[C@H]1O)c1cccc([N+](=O)[O-])c1 [M]
[in] Rank ascending by inhibition at 0.5 µM. Output the labels ranked as instructed.
[out] 3, 4, 1, 2
(3: 0.5%, 4: 11.8%, 1: 17.4%, 2: 42.2%)

----------
Molecular target: VIPR2 (Homo sapiens, UniProt P41587)
Experiment: Inhibition of VIP-induced β-arrestin recruitment (% Activity Arrestin)
Format: cell-based
Parameters: expressed in transfected cells; host or cells: HEK293 cells transfected with VIPR2 in pCDNA3.1 (as described)
Conditions: 5 μM, Batch 2
From the text: In a further non-limiting embodiment of the invention, the ability of a compound to inhibit VIPR2 GPCR activity may be tested, for example, using the PathHunter® eXpress β-Arrestin GPCR system (Discoverx Corporation, Fremont, Calif., US), as used by Chu et al., 2010, Molecular Pharmacol. 7795-101. […]
measurement name: inhibition at 5 µM (%)

Examples with answers:
>>> observed_result("O=C(NCc1ccccc1)[C@@H](Cc1ccccc1)C[C@H](O)CNS(=O)(=O)c1ccc([N+](=O)[O-])cc1")
7.2
>>> observed_result("C#CCNC(=O)[C@@H](Cc1ccccc1)C[C@H](O)CNS(=O)(=O)c1ccc([N+](=O)[O-])cc1 [Compound B21B]")
7
>>> observed_result("O=C(NC1Cc2ccccc2C1)[C@H](Cc1ccccc1)C[C@H](O)CNS(=O)(=O)c1ccc([N+](=O)[O-])cc1")
9.8

A: O=C(NCc1ccc(F)cc1F)[C@H](Cc1ccccc1)C[C@H](O)CNS(=O)(=O)c1ccc([N+](=O)[O-])cc1 [Compound B14A]
B: C[C@H](CC(C)(C)C)NC(=O)[C@@H](Cc1ccccc1)C[C@H](O)CNS(=O)(=O)c1ccc([N+](=O)[O-])cc1 [Compound B10B]
C: NC(=O)[C@@H](Cc1ccccc1)C[C@H](O)CNS(=O)(=O)c1ccc([N+](=O)[O-])cc1 [Compound B12B]
D: NC(=O)[C@H](Cc1ccccc1)C[C@H](O)CNS(=O)(=O)c1ccc([N+](=O)[O-])cc1 [Compound B12A]
[in] # sort list by recorded inhibition at 5 µM, greatest to least Output the labels ranked as instructed.
[out] A, B, C, D
(A: 30.8%, B: 20.2%, C: 7%, D: -23%)
